- assay-overview: Ex vivo biodistribution in PC-3 tumor-bearing mice
- stated-conditions: mouse, small intestine, Uptake in small intestine, 1 h post-injection
Numbered stars: 1 amine (or outer) side, 2 acyl side, 3 side chain; on linkers, the order of the positions; unused ones are H or OH. Square brackets hold non-standard residues; d marks the D form. Peptide text beside a SMILES is read from it. * marks the point of attachment. DOTA = O=C(O)CN1CCN(CC(=O)O)CCN(CC(=O)*)CCN(CC(=O)O)CC1; NMeH = CN[C@@H](Cc1c[nH]cn1)C(=O)O; X1 = O=C(CN1CCC(N[*:1])CC1)[*:2]; Tle = CC(C)(C)[C@H](N)C(=O)O; Thz = O=C(O)[C@@H]1CSCN1
Reported tissue uptake at 1 h values follow for various molecules
// return numeric value only (unit: %ID/g, not printed)

molecule	quantity-unit	tissue uptake at 1 h
CC(C)C[C@@H](CN1CSC[C@H]1C(N)=O)NC(=O)[C@H](Cc1cnc[nH]1)NC(=O)CN(C)C(=O)[C@@H](NC(=O)[C@H](C)NC(=O)[C@H](Cc1c[nH]c2ccccc12)NC(=O)[C@H](CCC(N)=O)NC(=O)[C@@H](Cc1ccccc1)NC(=O)CN1CCC(NC(=O)CN2CCN(CC(=O)O)CCN(CC(=O)O)CCN(CC(=O)O)CC2)CC1)C(C)C [[^177Lu]Lu-TacsBOMB5, metal not drawn]	%ID/g	0.6
CC(C)C[C@H](NC(=O)[C@H](Cc1cnc[nH]1)N(C)C(=O)CNC(=O)[C@@H](NC(=O)[C@H](C)NC(=O)[C@H](Cc1c[nH]c2ccccc12)NC(=O)[C@H](CCC(N)=O)NC(=O)[C@@H](Cc1ccccc1)NC(=O)CN1CCC(NC(=O)CN2CCN(CC(=O)O)CCN(CC(=O)O)CCN(CC(=O)O)CC2)CC1)C(C)(C)C)C(=O)N1CSC[C@H]1C(N)=O [[^177Lu]Lu-LW01110, metal not drawn]	%ID/g	2.01

Now consider the entry below.
The reported tissue uptake at 1 h of the molecule CC(C)C[C@H](NC(=O)[C@H](Cc1cnc[nH]1)N(C)C(=O)CNC(=O)[C@@H](NC(=O)[C@H](C)NC(=O)[C@H](Cc1c[nH]c2ccccc12)NC(=O)[C@H](Cc1c[nH]cn1)NC(=O)[C@@H](Cc1ccccc1)NC(=O)CN1CCC(NC(=O)CN2CCN(CC(=O)O)CCN(CC(=O)O)CCN(CC(=O)O)CC2)CC1)C(C)(C)C)C(=O)N1CSC[C@H]1C(N)=O [[^177Lu]Lu-LW01142, metal not drawn] ({DOTA}-[X1][dF]HWA[Tle]G[NMeH]L[Thz]-NH2) was 1.32

---

Reported tissue uptake at 1 h values follow for various compounds
- assay-overview: Ex vivo biodistribution in PC-3 tumor-bearing mice
- stated-conditions: mouse, PC-3 tumor, Uptake in PC-3 tumor, 1 h post-injection
Numbered stars: 1 amine (or outer) side, 2 acyl side, 3 side chain; on linkers, the order of the positions; unused ones are H or OH. Square brackets hold non-standard residues; d marks the D form. Peptide text beside a SMILES is read from it. * marks the point of attachment. DOTA = O=C(O)CN1CCN(CC(=O)O)CCN(CC(=O)*)CCN(CC(=O)O)CC1; NMeH = CN[C@@H](Cc1c[nH]cn1)C(=O)O; X1 = O=C(CN1CCC(N[*:1])CC1)[*:2]; Tle = CC(C)(C)[C@H](N)C(=O)O; Thz = O=C(O)[C@@H]1CSCN1
// return numeric value only (unit: %ID/g, not printed)

Illustrative cases are given below, each with its answer.
compound	quantity-unit	quantitative-result
CC(C)C[C@H](NC(=O)[C@H](Cc1cnc[nH]1)N(C)C(=O)CNC(=O)[C@@H](NC(=O)[C@H](C)NC(=O)[C@H](Cc1c[nH]c2ccccc12)NC(=O)[C@H](Cc1c[nH]cn1)NC(=O)[C@@H](Cc1ccccc1)NC(=O)CN1CCC(NC(=O)CN2CCN(CC(=O)O)CCN(CC(=O)O)CCN(CC(=O)O)CC2)CC1)C(C)(C)C)C(=O)N1CSC[C@H]1C(N)=O [[^177Lu]Lu-LW01142, metal not drawn] ({DOTA}-[X1][dF]HWA[Tle]G[NMeH]L[Thz]-NH2)	%ID/g	13.4
CC(C)C[C@@H](CN1CSC[C@H]1C(N)=O)NC(=O)[C@H](Cc1cnc[nH]1)NC(=O)CN(C)C(=O)[C@@H](NC(=O)[C@H](C)NC(=O)[C@H](Cc1c[nH]c2ccccc12)NC(=O)[C@H](CCC(N)=O)NC(=O)[C@@H](Cc1ccccc1)NC(=O)CN1CCC(NC(=O)CN2CCN(CC(=O)O)CCN(CC(=O)O)CCN(CC(=O)O)CC2)CC1)C(C)C [[^177Lu]Lu-TacsBOMB5, metal not drawn]	%ID/g	8.71

The reported tissue uptake at 1 h of the compound CC(C)C[C@H](NC(=O)[C@H](Cc1cnc[nH]1)N(C)C(=O)CNC(=O)[C@@H](NC(=O)[C@H](C)NC(=O)[C@H](Cc1c[nH]c2ccccc12)NC(=O)[C@H](CCC(N)=O)NC(=O)[C@@H](Cc1ccccc1)NC(=O)CN1CCC(NC(=O)CN2CCN(CC(=O)O)CCN(CC(=O)O)CCN(CC(=O)O)CC2)CC1)C(C)(C)C)C(=O)N1CSC[C@H]1C(N)=O [[^177Lu]Lu-LW01110, metal not drawn] was 11

---

- assay-overview: Ex vivo biodistribution in PC-3 tumor-bearing mice
- stated-conditions: mouse, bone, Uptake in bone, 24 h post-injection
Numbered stars: 1 amine (or outer) side, 2 acyl side, 3 side chain; on linkers, the order of the positions; unused ones are H or OH. Square brackets hold non-standard residues; d marks the D form. Peptide text beside a SMILES is read from it. * marks the point of attachment. DOTA = O=C(O)CN1CCN(CC(=O)O)CCN(CC(=O)*)CCN(CC(=O)O)CC1; NMeH = CN[C@@H](Cc1c[nH]cn1)C(=O)O; X1 = O=C(CN1CCC(N[*:1])CC1)[*:2]; Tle = CC(C)(C)[C@H](N)C(=O)O; Thz = O=C(O)[C@@H]1CSCN1
value-type: tissue uptake at 24 h (%ID/g)
// return numeric value only (unit: %ID/g, not printed)

The reported tissue uptake at 24 h of the molecule CC(C)C[C@H](NC(=O)[C@H](Cc1cnc[nH]1)N(C)C(=O)CNC(=O)[C@@H](NC(=O)[C@H](C)NC(=O)[C@H](Cc1c[nH]c2ccccc12)NC(=O)[C@H](Cc1c[nH]cn1)NC(=O)[C@@H](Cc1ccccc1)NC(=O)CN1CCC(NC(=O)CN2CCN(CC(=O)O)CCN(CC(=O)O)CCN(CC(=O)O)CC2)CC1)C(C)(C)C)C(=O)N1CSC[C@H]1C(N)=O [[^177Lu]Lu-LW01142, metal not drawn] ({DOTA}-[X1][dF]HWA[Tle]G[NMeH]L[Thz]-NH2) was 0.03

The reported tissue uptake at 24 h of the molecule CC(C)C[C@H](NC(=O)[C@H](Cc1cnc[nH]1)N(C)C(=O)CNC(=O)[C@@H](NC(=O)[C@H](C)NC(=O)[C@H](Cc1c[nH]c2ccccc12)NC(=O)[C@H](CCC(N)=O)NC(=O)[C@@H](Cc1ccccc1)NC(=O)CN1CCC(NC(=O)CN2CCN(CC(=O)O)CCN(CC(=O)O)CCN(CC(=O)O)CC2)CC1)C(C)(C)C)C(=O)N1CSC[C@H]1C(N)=O [[^177Lu]Lu-LW01110, metal not drawn] was 0.02

The reported tissue uptake at 24 h of the molecule CC(C)C[C@@H](CN1CSC[C@H]1C(N)=O)NC(=O)[C@H](Cc1cnc[nH]1)NC(=O)CN(C)C(=O)[C@@H](NC(=O)[C@H](C)NC(=O)[C@H](Cc1c[nH]c2ccccc12)NC(=O)[C@H](CCC(N)=O)NC(=O)[C@@H](Cc1ccccc1)NC(=O)CN1CCC(NC(=O)CN2CCN(CC(=O)O)CCN(CC(=O)O)CCN(CC(=O)O)CC2)CC1)C(C)C [[^177Lu]Lu-TacsBOMB5, metal not drawn] was 0.07

---

- assay-overview: Ex vivo biodistribution in PC-3 tumor-bearing mice
- stated-conditions: mouse, stomach, 100 ug, Uptake in stomach, 1 h blocked (co-injected with 100 µg [D-Phe6,Leu-NHEt13,des-Met14]Bombesin(6-14))
value-type: tissue uptake at 1 h (%ID/g)
// return numeric value only (unit: %ID/g, not printed)

compound	value-type	quantity-unit	quantitative-result
CC(C)C[C@H](NC(=O)[C@H](Cc1cnc[nH]1)N(C)C(=O)CNC(=O)[C@@H](NC(=O)[C@H](C)NC(=O)[C@H](Cc1c[nH]c2ccccc12)NC(=O)[C@H](CCC(N)=O)NC(=O)[C@@H](Cc1ccccc1)NC(=O)CN1CCC(NC(=O)CN2CCN(CC(=O)O)CCN(CC(=O)O)CCN(CC(=O)O)CC2)CC1)C(C)(C)C)C(=O)N1CSC[C@H]1C(N)=O [[^177Lu]Lu-LW01110, metal not drawn]	tissue uptake at 1 h	%ID/g	0.17

Now consider the entry below.
The reported tissue uptake at 1 h of the compound CC(C)C[C@@H](CN1CSC[C@H]1C(N)=O)NC(=O)[C@H](Cc1cnc[nH]1)NC(=O)CN(C)C(=O)[C@@H](NC(=O)[C@H](C)NC(=O)[C@H](Cc1c[nH]c2ccccc12)NC(=O)[C@H](CCC(N)=O)NC(=O)[C@@H](Cc1ccccc1)NC(=O)CN1CCC(NC(=O)CN2CCN(CC(=O)O)CCN(CC(=O)O)CCN(CC(=O)O)CC2)CC1)C(C)C [[^177Lu]Lu-TacsBOMB5, metal not drawn] was 0.06
